target: human VR1 (Homo sapiens, UniProt Q8NER1); assay: Human VR1 antagonist assay (Ca2+ imaging, capsaicin stimulation); settings: human VR1 expressing cells; concentration reducing capsaicin-evoked Ca2+ influx by 50%; capsaicin 300 nM; read-out: hVR1 IC50
Sequence (Q8NER1 whole entry): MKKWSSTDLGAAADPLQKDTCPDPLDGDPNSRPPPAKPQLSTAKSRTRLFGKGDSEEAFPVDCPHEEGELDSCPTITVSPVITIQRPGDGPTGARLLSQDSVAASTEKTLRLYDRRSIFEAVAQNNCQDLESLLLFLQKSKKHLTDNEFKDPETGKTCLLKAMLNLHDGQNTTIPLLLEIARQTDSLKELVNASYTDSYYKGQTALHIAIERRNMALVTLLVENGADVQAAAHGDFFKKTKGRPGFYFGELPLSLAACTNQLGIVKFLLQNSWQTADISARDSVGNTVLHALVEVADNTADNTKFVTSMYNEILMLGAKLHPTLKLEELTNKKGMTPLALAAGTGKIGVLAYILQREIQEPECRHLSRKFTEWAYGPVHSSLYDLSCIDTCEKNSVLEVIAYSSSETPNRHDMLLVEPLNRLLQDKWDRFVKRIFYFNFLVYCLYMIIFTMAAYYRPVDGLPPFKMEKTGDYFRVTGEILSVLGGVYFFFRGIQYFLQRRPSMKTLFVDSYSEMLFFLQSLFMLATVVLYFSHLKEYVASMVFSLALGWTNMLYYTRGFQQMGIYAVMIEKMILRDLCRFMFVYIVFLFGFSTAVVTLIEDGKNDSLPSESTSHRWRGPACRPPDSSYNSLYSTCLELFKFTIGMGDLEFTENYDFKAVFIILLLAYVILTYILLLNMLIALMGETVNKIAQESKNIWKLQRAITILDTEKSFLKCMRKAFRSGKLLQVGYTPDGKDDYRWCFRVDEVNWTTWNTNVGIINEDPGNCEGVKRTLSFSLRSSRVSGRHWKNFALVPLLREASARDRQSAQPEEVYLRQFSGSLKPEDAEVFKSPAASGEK
pIC50: −log10 of the molar value.
Tick true (1) if pIC50 is 8 or greater. Tick false (0) if pIC50 is less than 8.

Consider the following illustrative entries.
In [3]: df
Out[3]:
                                   compound  assignedlabel
0  C[C@@H](NC(=O)COc1cc(F)c(C(C)(C)C)c(F)c1)c1ccc(NS(C)(=O)=O)cc1 [Example 3]      false (0)
1  Cc1cc([C@@H](C)NC(=O)COc2cc(F)c(C(C)(C)C)c(F)c2)ccc1NS(C)(=O)=O [Example 1]       true (1)

Field: next compound
Could you verify whether the entry C[C@@H](NC(=O)COc1cc(F)c(C(C)(C)C)c(F)c1)c1ccc(NS(C)(=O)=O)c(F)c1 [Example 2] shows pIC50 of no less than 8?
false (0)
